B1: glmS ribozyme (parent)
chain: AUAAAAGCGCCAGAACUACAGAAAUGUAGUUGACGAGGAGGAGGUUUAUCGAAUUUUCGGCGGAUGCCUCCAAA

Variants of: B1
Test: self-cleavage kobs at 40 uM GlcN6P; higher = faster cleavage; RNA array
Settings: with glucosamine-6-phosphate
Fewer inactive variants are shown than the library holds.
Recorded self-cleavage kobs at 40 uM GlcN6P by entry

Consider the following illustrative entries.
> print(dat)
                 alteration  recorded.result
1  A15G G32C G41A G60A C71U      < 1e-05 s⁻¹
2                 U31G C67U     0.000124 s⁻¹
3                 A33G C71A      < 1e-05 s⁻¹
4                 A39G G41U     3.41e-05 s⁻¹

Fill in: self-cleavage kobs at 40 uM GlcN6P of G7U U54G C70G C71U is ___
7.3e-05 s⁻¹

Fill in: self-cleavage kobs at 40 uM GlcN6P of C8G G37C C67G is ___
< 1e-05 s⁻¹

Fill in: self-cleavage kobs at 40 uM GlcN6P of C16G A64G is ___
0.000127 s⁻¹

Fill in: self-cleavage kobs at 40 uM GlcN6P of A33U C67G is ___
< 1e-05 s⁻¹

Fill in: self-cleavage kobs at 40 uM GlcN6P of C16A G29C G37U is ___
< 1e-05 s⁻¹

Fill in: self-cleavage kobs at 40 uM GlcN6P of G13A C16G A64U is ___
< 1e-05 s⁻¹

Fill in: self-cleavage kobs at 40 uM GlcN6P of A6G A33U is ___
< 1e-05 s⁻¹
